- EXPERIMENTAL_TARGET: human pIgR, full-length, on cells (human, UniProt P01833 19-764)
- Sequence (P01833 19-764): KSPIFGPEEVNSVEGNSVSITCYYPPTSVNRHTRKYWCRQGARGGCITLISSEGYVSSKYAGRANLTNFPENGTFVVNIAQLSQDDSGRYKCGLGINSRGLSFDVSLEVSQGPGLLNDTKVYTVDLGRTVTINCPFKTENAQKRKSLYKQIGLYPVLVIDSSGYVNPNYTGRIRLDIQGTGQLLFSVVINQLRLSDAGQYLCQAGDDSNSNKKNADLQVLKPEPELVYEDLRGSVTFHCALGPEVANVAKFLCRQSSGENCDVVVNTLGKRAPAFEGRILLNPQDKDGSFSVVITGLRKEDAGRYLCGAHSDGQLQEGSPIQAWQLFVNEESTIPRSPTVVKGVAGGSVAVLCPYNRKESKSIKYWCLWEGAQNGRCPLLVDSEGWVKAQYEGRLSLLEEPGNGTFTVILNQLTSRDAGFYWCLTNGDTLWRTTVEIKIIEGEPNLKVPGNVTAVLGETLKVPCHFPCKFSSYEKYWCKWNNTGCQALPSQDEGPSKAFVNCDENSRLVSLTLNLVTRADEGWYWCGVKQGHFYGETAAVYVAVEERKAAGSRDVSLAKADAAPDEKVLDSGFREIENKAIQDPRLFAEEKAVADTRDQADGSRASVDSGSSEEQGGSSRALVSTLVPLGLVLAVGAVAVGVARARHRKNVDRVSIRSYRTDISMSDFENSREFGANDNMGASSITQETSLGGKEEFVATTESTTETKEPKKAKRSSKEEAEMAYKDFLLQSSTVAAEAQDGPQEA
- ASSAY_INFO: cell-based or functional assay
TEST_READOUT: Transcytosis (Fold Incr.) (fold)
Report only the number, with the unit fold understood.

# input binder: VHH5-linker-mono-Fc protein (Fc fusion, made in CHO cells; also called VHH5-mono-Fc; hpIgR_175) QVQLVESGGGLVQAGGSLRLSCAASGRTFSSYAMGWFRQAPGKEREFVAAITWNGGTTYYADSVKGRFTISRDNAKNTVYLQMNSLKPEDTAVYYCAADPFNQGYWGQGTQVTVSSEPKTPKPQPQPQLQPQPNPTTESKSPKSPAPELLGGPSVFLFPPKPKDTLMISRTPEVTCVVVDVSHEDPEVKFNWYVDGVEVHNAKTKPREEQYNSTYRVVSVLTVLHQDWLNGKEYKCKVSNKALPAPIEKTISKAKGQPREPQVYTKPPSREEMTKNQVSLSCLVKGFYPSDIAVEWESNGQPENNYKTTVPVLDSDGSFRLASYLTVDKSRWQQGNVFSCSVMHEALHNHYTQKSLSLSPGK ; wanted: its Transcytosis (Fold Incr.)
6.9
